test: CREB reporter modulators without forskolin, primary screen, cell-based, PC12, CRE-LacZ reporter, unstimulated (AID 1145); details: no forskolin, luminescence, 4.5 h, higher = more signal, called active from +8 up or from −8 down

{"columns": ["compound", "z-score"],
 "data": [
  ["COc1ccc(CCNC(=O)[C@@H]2c3ccccc3C(=O)N(c3ccc(C)cn3)[C@H]2c2ccc(CO)cc2)cc1", 0.648],
  ["NCCCCCNC(=O)[C@@H]1C[C@@H]2C(=O)N3CCC[C@H]3C(=O)N2[C@@H]1c1cccc(OCCO)c1", -0.264],
  ["[N-]=[N+]=NCc1ccccc1[C@@H]1OC(c2ccc(OCCCO)cc2)=N[C@]1(Cc1ccccc1)C(=O)N1CCOCC1", -0.0017],
  ["C[C@@H](c1ccccc1)N1C(=O)[C@H]2[C@H]3[C@H](O)[C@H](O)CC(=NOC[C@@H](O)COCc4ccco4)[C@@H]3CC[C@H]2C1=O", -0.292],
  ["CC(C)=C1C(=O)C(c2ccccc2)=C2CN3C(=O)N(CCc4ccccc4)C(=O)[C@]3(Cc3ccc(F)cc3)[C@H]21", 0.576],
  ["COC(=O)[C@H](C)NC(=O)CCC1CC(OC(=O)NCc2cccc3ccccc23)CC2(CCCC(COC(=O)NCCc3ccc(Cl)cc3)O2)O1 (stereo partly specified)", 0.2],
  ["COCCOC(=O)N1C(=O)[C@@]2(c3cc(C#CCNC(N)=O)ccc31)[C@H](c1ccc(O)cc1)N1[C@H](c3ccccc3)[C@H](c3ccccc3)OC(=O)[C@H]1[C@@H]2C(=O)N1CCCCCCC1", -1.57],
  ["CC(C)=CCCC(C)=CCON=C1[C@H]2CCn3c(=O)n(C)c(=O)n3[C@H]2[C@H](O)[C@@H]2O[C@H]12", 0.519],
  ["Cc1cc(C)c(-c2cc([C@H](C)ON=C3[C@H]4CCn5c(=O)n(-c6ccccc6)c(=O)n5[C@H]4[C@H](O)[C@@H]4O[C@H]34)on2)c(C)c1", 0.229],
  ["CCc1cc2c(nc1CC)CCN(CCC(C)=NOC[C@@H](O)COCc1ccco1)C2", 2.16],
  ["COc1ccc(O[C@H]2C=C[C@@H](c3ccccc3)O[C@@H]2COC(=O)CCC(C)=NOC[C@@H](C)[C@H](OCc2ccccc2)C(C)C)cc1", -0.901],
  ["Cc1ccc(C2CC=C(C(=O)O)CN2S(=O)(=O)c2ccc(C)cc2)cc1 (stereo unspecified)", -0.378],
  ["COc1ccc(-c2ccc3c(n2)CCCN3CC(O)CN2CCCc3nc(C)c(C)cc32)cc1 (stereo unspecified)", -0.0779],
  ["CN1C(=O)C2C=CC(C(O)c3ccc(I)cc3)N(NC(=O)OC(C)(C)C)C2C1=O (stereo unspecified)", -0.515],
  ["CC(C)[C@@H](OCc1ccccc1)[C@H](C)C=NOC[C@@H](C)[C@H](OCc1ccccc1)C(C)C", 0.471],
  ["CC(CCN1CCCCc2nc(C)c(C)cc21)=NOC(C)CN1CCCCc2nc(C)c(C)cc21 (stereo unspecified)", 0.187],
  ["COc1ccc(O[C@H]2C=C[C@@H](c3ccccc3)O[C@@H]2COC(=O)CCC(C)=NOC(C)CN2CCCCc3nc(C)c(C)cc32)cc1 (stereo partly specified)", -0.817],
  ["COc1ccc(O[C@H]2C=C[C@@H](c3ccccc3)O[C@@H]2COC(=O)CCC(C)=NO[C@@H](C)c2cc(-c3c(C)cc(C)cc3C)no2)cc1", -0.315],
  ["CN1C(=O)C2C(C1=O)C1C=C(CCCO)C2C(c2ccc(CN3CCCC3)cc2)N1C (stereo unspecified)", -0.0743],
  ["COCCCNC(=O)[C@]1(CCC(=O)OC(C)(C)C)N=C(c2ccc(OCCCO)cc2)O[C@@H]1c1ccccc1N=[N+]=[N-]", -0.482],
  ["C=CC[C@]1(C(=O)NCc2ccccc2)N=C(c2ccc(OCCCO)cc2)O[C@H]1c1ccccc1", 0.848],
  ["CCN1C(=O)[C@H]2[C@H]3[C@H](O)[C@H](O)CC(=NOCc4ccccc4)[C@@H]3CC[C@H]2C1=O", 1.42],
  ["CC(C)[C@H](NC(=O)OC(C)(C)C)[C@@H](O)CC(=O)OC(C)(C)C", 0.293],
  ["CCCC[C@H]1OB(O)C[C@H]2C1=C(C)C[C@H]1C(=O)N(C)C(=O)[C@H]12", -0.237],
  ["COc1cccc([C@@H]2Oc3ccc(Br)cc3C(=O)[C@H]2O)c1", 4.08],
  ["CCOC(=O)[C@H](CC(C)C)NC(=O)CCC1CC(OC(=O)NCc2cccc3ccccc23)CC2(CCCC(COC(=O)NCCN3CCOCC3)O2)O1 (stereo partly specified)", -0.164],
  ["CC(=O)C[C@H](O)[C@@H](NC(=O)OC(C)(C)C)C(C)C", 0.288],
  ["COC(=O)C1=CCC(c2cccc(Cl)c2)O1 (stereo unspecified)", 0.388],
  ["COc1ccc([Si](C)(C)[C@@H]2[C@@H](CCO)O[C@]3(C(=O)N(Cc4ccc(NC(C)=O)cc4)c4ccccc43)[C@H]2C)cc1", 3.57],
  ["O=C1[C@H]2[C@H]3[C@H](O)[C@H](O)CC(=NOCc4ccccc4)[C@H]3CC[C@H]2C(=O)N1c1cccc(Oc2ccccc2)c1", -0.384],
  ["COC(=O)[C@]1(CO)N=C(c2ccc(OCCCO)cc2)O[C@@H]1c1ccccc1N=[N+]=[N-]", -0.609]
]}

* * *

assay: fission yeast growth modulation, primary screen, strain 972, OD600, 24 h, no modulator (AID 1090);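 also: basal condition with compound alone and no growth modifier present; test concentration not given here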; conditions: S. pombe 972 growth, higher = more signal, called active from +8 up or from −8 down
measured quantity: z-score

{"columns": ["compound", "reported"],
 "data": [
  ["COC(=O)[C@@H]1CC[C@H](C)[C@@H](c2ccc(C)cc2)N1C(=O)c1ccc(C=NOC(C)CN2CCCCc3nc(C)c(C)cc32)cc1 (some centres not stated)", -11.8],
  ["CCc1cccc(NC(=O)O[C@H]2[C@H](OC(=O)Nc3ccc4c(c3)OCO4)[C@@H](OC(=O)Nc3ccc4c(c3)OCO4)[C@@H](OC)O[C@@H]2CO)c1", 1.5],
  ["CCN1C(=O)[C@H]2[C@H]3[C@H](O)[C@H](O)CC(=NO[C@@H]4O[C@H](CO)[C@@H](O)[C@H](O)[C@H]4O)[C@@H]3CC[C@H]2C1=O", -0.599],
  ["C[C@H](c1ccccc1)N1C(=O)[C@H]2[C@@H]3C(=CC[C@H]2C1=O)C(=O)[C@H]1O[C@H]1[C@H]3O", -1.84],
  ["COC(=O)CC=C[C@@H](C)[C@H](OC)c1ccccc1Br", -0.636],
  ["CCOC(=O)NN=C1C[C@@H](O)[C@@H](O)[C@@H]2[C@@H]3C(=O)N(C[C@@H]4CCCO4)C(=O)[C@@H]3CC[C@@H]12", -0.408],
  ["COC(=O)CC=C[C@@H](C)[C@@H](C=NO[C@H](C)c1cn([C@@H]2COC[C@H]2O)nn1)OC", 0.189]
]}

* * *

experiment: MM1S cell viability effects, profiling panel, calcein-AM fluorescence, 48 h, basal (AID 1165); settings: higher = more signal;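 also: viability of MM1S multiple myeloma cells under basal unstimulated conditions; test concentration not given here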
Please note: True applies when z-score is -0.4 or greater, and False applies otherwise.

{"columns": ["cpd smiles", "label"],
 "data": [
  ["O=C1[C@H]2[C@H]3[C@H](O)[C@H](O)CC(=NOCc4ccccc4)[C@@H]3CC[C@H]2C(=O)N1C1CCCCC1", "False"],
  ["O=C1[C@H]2[C@H]3[C@H](O)[C@H](O)CC(=NO[C@@H]4O[C@H](CO)[C@@H](O)[C@H](O)[C@H]4O)[C@H]3CC[C@H]2C(=O)N1C1CCCCC1", "True"],
  ["COc1cccc([C@H]2Oc3ccc(OC)cc3C(=NO[C@H](C)c3cn([C@@H]4COC[C@H]4O)nn3)[C@@H]2O)c1", "False"],
  ["Cc1cc2c(c(=O)o1)[C@H](O)[C@H]1O[C@H]1C2=O", "False"],
  ["O=C1[C@H]2[C@H]3[C@H](O)[C@H](O)CC(=NOC[C@@H](O)COCc4ccco4)[C@H]3CC[C@H]2C(=O)N1Cc1ccc2c(c1)OCO2", "False"],
  ["CO[C@H]1O[C@H](CO)[C@@H](OC(=O)Nc2ccc3c(c2)OCO3)[C@H](OC(=O)Nc2ccccc2-c2ccccc2)[C@@H]1OC(=O)Nc1ccccc1-c1ccccc1", "False"],
  ["COC(=O)[C@]1(CO)N=C(c2ccc(OCCCO)cc2)O[C@@H]1c1ccccc1N=[N+]=[N-]", "True"],
  ["COc1ccccc1CN1C(=O)c2ccccc2[C@@]2(Cc3ccccc3N(C(C)C)C2=O)[C@@H]1c1ccc(CO)cc1", "True"],
  ["COCCCNC(=O)[C@@]1(C)c2ccccc2C(=O)N(Cc2ccc(OC(F)(F)F)cc2)[C@H]1c1ccc(CO)cc1", "True"],
  ["COC(=O)[C@H](C)NC(=O)[C@@H](C)CO", "True"],
  ["O=C(CS)NCCCCCNC(=O)[C@@H]1C[C@@H]2C(=O)N[C@@H](Cc3ccccc3)C(=O)N2[C@@H]1c1ccc(O)cc1", "True"],
  ["COc1ccc(O[C@H]2C=C[C@@H](c3ccccc3)O[C@@H]2COC(=O)CCC(C)=NO[C@H](C)c2cn([C@@H]3COC[C@H]3O)nn2)cc1", "False"],
  ["CC(=O)OC[C@H]1O[C@H](CCON=C(C)CCN2CCc3nc(-c4ccccc4)c(-c4ccccc4)cc3C2)C=C[C@@H]1OC(C)=O", "False"],
  ["CCCCCCc1nc(CCCc2cc3c(c(CCCCCC)n2)[Si](C(C)C)(C(C)C)O[C@H]3c2ccccc2)cc2c1[Si](C(C)C)(C(C)C)O[C@H]2c1ccccc1", "True"],
  ["CC(C)OC(=O)C=C1C[C@@H](c2ccc(C#N)cc2)O[C@@H](c2ccc(C#N)cc2)O1", "False"]
]}
